procedure_text: chemical genetic growth profiling, strain panel (AID 1159580);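 further: tested at 20 µM; growth read once vehicle control cultures reached saturation at 30 °C; 1 = growth at the plate median or of vehicle wells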
test_parameters: S. cerevisiae deletion strains, growth OD, locus YLR258W, strain gsy2
The whole screen tested about 5,500 compounds, of which about 2,000 (36%) were called active. Another 18% or so got no clear call; they are omitted. No stated cut-off is given here; in the data, active means normalized growth mostly below about 0.91 (no sharp cut-off); inconclusive means no clear call, values can overlap the other calls; inactive means mostly above about 0.92. The list shows a part of the results.
Outcome codes: true (active), false (inactive)

[[record]]
molecule = "CC(=O)Oc1ccccc1C(=O)Oc1ccccc1C(=O)O"
discrete_label = "false"

[[record]]
molecule = "COc1cc(C(=O)N2CCOCC2)cc(OC)c1OC"
discrete_label = "false"

[[record]]
molecule = "CC(=O)OC1CC[C@@]2(C)C(CCC3C2CC[C@]2(C)C(C4=CC(=O)OC4)C(OC(C)=O)CC32O)C1 (stereo partly specified)"
discrete_label = "false"

[[record]]
molecule = "Nc1ccc(S(=O)(=O)Nc2ncccn2)cc1"
discrete_label = "false"

[[record]]
molecule = "CCCCC(=O)O[C@]1(C(=O)CO)[C@@H](C)CC2C3CCC4=CC(=O)C=C[C@]4(C)[C@@]3(F)C(O)C[C@@]21C (stereo partly specified)"
discrete_label = "false"

[[record]]
molecule = "CC1=CC(=O)C(C(C)C)=CC1=O"
discrete_label = "true"

[[record]]
molecule = "CN(C)CC[C@H](c1ccc(Cl)cc1)c1ccccn1"
discrete_label = "false"

[[record]]
molecule = "CCCc1nn(C)c2c(=O)[nH]c(-c3cc(S(=O)(=O)N4CCN(C)CC4)ccc3OCC)nc12"
discrete_label = "false"

[[record]]
molecule = "CC(C)c1cccc(C(C)C)c1O"
discrete_label = "false"

[[record]]
molecule = "O=C(Oc1cccc2cccnc12)c1ccccc1"
discrete_label = "false"

[[record]]
molecule = "CCC(=O)O[C@]1(C(=O)CCl)[C@@H](C)CC2C3CCC4=CC(=O)C=C[C@]4(C)[C@@]3(F)[C@@H](O)C[C@@]21C (stereo partly specified)"
discrete_label = "false"


----------
procedure_text: chemical genetic growth profiling, strain panel (AID 1159580);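 further: tested at 20 µM; growth read once vehicle control cultures reached saturation at 30 °C; 1 = growth at the plate median or of vehicle wells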
test_parameters: S. cerevisiae deletion strains, growth OD, locus YJL164C, strain tpk1, stronger effect = lower value
Screen size: about 5,500 compounds; about 2,000 (36%) were called active. Roughly 18% stayed inconclusive and do not appear here. The list shows a part of the results.
reported_metric: normalized growth

[[record]]
molecule = "O=C(CCCN1CCC2(CC1)C(=O)NCN2c1ccccc1)c1ccc(F)cc1"
value_reported = 0.984

[[record]]
molecule = "CN(C)C(=O)C(CCN1CCC(O)(c2ccc(Cl)cc2)CC1)(c1ccccc1)c1ccccc1"
value_reported = 0.994

[[record]]
molecule = "COc1ccc(-c2cc(=O)c3c(O)cc(O)c(-c4cc(-c5cc(=O)c6c(O)cc(O)cc6o5)ccc4OC)c3o2)cc1"
value_reported = 0.987

[[record]]
molecule = "COc1cc(O)c2c(=O)cc(-c3ccc(OC)c(-c4c(O)cc(O)c5c(=O)cc(-c6ccc(O)cc6)oc45)c3)oc2c1"
value_reported = 0.98

[[record]]
molecule = "CCCCCC(O)C1C(=O)OC(C)C(O)/C=C/C=C/C=C/C=C/C=C(\\C)C(O)CC(O)CC(O)CC(O)CC(O)CC(O)CC1O (stereo not drawn)"
value_reported = 1

[[record]]
molecule = "CSc1nc(NC(C)C)nc(NC(C)C)n1"
value_reported = 0.969

[[record]]
molecule = "NCC(O)CC(=O)O (stereo not drawn)"
value_reported = 1.06

[[record]]
molecule = "COc1nc(NC(C)C)nc(NC(C)C)n1"
value_reported = 1.01


----------
procedure_text: chemical genetic growth profiling, strain panel (AID 1159580);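 further: tested at 20 µM; growth read once vehicle control cultures reached saturation at 30 °C; 1 = growth at the plate median or of vehicle wells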
test_parameters: S. cerevisiae deletion strains, growth OD, locus YNL224C, strain SQS1
The whole screen tested about 5,500 compounds, of which about 2,000 (36%) were called active. Another 18% or so got no clear call; they are omitted. Rule as the data show it: active = normalized growth mostly below about 0.91 (no sharp cut-off); inconclusive = no clear call, values can overlap the other calls; inactive = mostly above about 0.92. Some of the results follow.
Outcome codes: 1 for active, 0 for inactive

[[record]]
molecule = "C#CCOC(=O)C1=CCCN(C)C1"
discrete_label = 0

[[record]]
molecule = "NC(N)=NC(N)=Nc1cccc(Cl)c1"
discrete_label = 0

[[record]]
molecule = "COc1ccccc1N1CCN(CCCNc2cc(=O)n(C)c(=O)n2C)CC1"
discrete_label = 0

[[record]]
molecule = "CC(C)NCC(O)COc1ccc(CCOCC2CC2)cc1 (centres undefined)"
discrete_label = 0

[[record]]
molecule = "Cc1cc(N)c2ccccc2[n+]1CCCCCCCCCCCCCC[n+]1c(C)cc(N)c2ccccc21"
discrete_label = 1

[[record]]
molecule = "NCCCCN"
discrete_label = 0

[[record]]
molecule = "Cc1c(OCC(F)(F)F)ccnc1CS(=O)c1nc2ccccc2[nH]1 (centres undefined)"
discrete_label = 0

[[record]]
molecule = "N#C/C(=C\\c1c[nH]c2ccccc12)C(=O)c1ccc(O)c(O)c1"
discrete_label = 0

[[record]]
molecule = "CC(=O)NC(CS)C(=O)O (centres undefined)"
discrete_label = 0

[[record]]
molecule = "CN1CCCC1c1cccnc1 (centres undefined)"
discrete_label = 0

[[record]]
molecule = "COc1ccccc1N1CCN(CCN(C(=O)C2CCCCC2)c2ccccn2)CC1"
discrete_label = 0

[[record]]
molecule = "COc1cccc(OC)c1OCCNCC1CSc2ccccc2O1 (centres undefined)"
discrete_label = 0

[[record]]
molecule = "Nc1nc2c(ncn2COC(CO)CO)c(=O)[nH]1"
discrete_label = 0

[[record]]
molecule = "COC(=O)C(N)Cc1ccc(Cl)cc1 (centres undefined)"
discrete_label = 0


----------
# normalized growth listing for each entry below
procedure_text: chemical genetic growth profiling, strain panel (AID 1159580);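 further: tested at 20 µM; growth read once vehicle control cultures reached saturation at 30 °C; 1 = growth at the plate median or of vehicle wells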
test_parameters: S. cerevisiae deletion strains, growth OD, locus YOR136W, strain idh2, stronger effect = lower value
In all, about 5,500 compounds went through this assay and about 2,000 (36%) were called active. Roughly 18% stayed inconclusive and do not appear here. Some of the results follow.
reported_metric: normalized growth

[[record]]
compound = "CC1(C)[C@@H]2CC[C@@]1(C)C(=O)C2"
value_reported = 0.991

[[record]]
compound = "CC(=O)O[C@@H]1CC2C(C)(C)CCC[C@]2(C)C2CC[C@]3(C)C(=CC(=O)O[C@H]3c3ccoc3)[C@@]21C (stereo partly drawn)"
value_reported = 0.997

[[record]]
compound = "O=C(O)CN(CCN(CC(=O)O)CC(=O)O)CC(=O)O"
value_reported = 0.909

[[record]]
compound = "CO[C@@H]1C[C@H](O[C@H]2CC[C@]3(C)C4CC[C@]5(C)[C@@H](C6=CC(=O)OC6)CC[C@]5(O)[C@@H]4CC[C@]3(O)C2)O[C@H](C)[C@@H]1O (stereo partly drawn)"
value_reported = 0.983

[[record]]
compound = "CNC[C@H](O)c1cccc(O)c1"
value_reported = 1.02

[[record]]
compound = "CCCc1nn(C)c2c(=O)[nH]c(-c3cc(S(=O)(=O)N4CCN(C)CC4)ccc3OCC)nc12"
value_reported = 0.991

[[record]]
compound = "COC(=O)CC1C(C)(C)C(OC(C)=O)[C@@H]2[C@@H](OC(C)=O)[C@]34O[C@@]2(O)[C@]1(C)C3CC[C@]1(C)C4=CC(=O)O[C@H]1c1ccoc1 (stereo partly drawn)"
value_reported = 1.02

[[record]]
compound = "NC(=O)c1ccc([N+](=O)[O-])cc1Cl"
value_reported = 0.99

[[record]]
compound = "Oc1ccc2c3c1OC1[C@@H](O)CC[C@@]4(O)[C@@H](C2)N(CC2CCC2)CC[C@]314 (stereo partly drawn)"
value_reported = 1.02

[[record]]
compound = "COc1ccccc1N1CCN(CCCNc2cc(=O)n(C)c(=O)n2C)CC1"
value_reported = 0.997

[[record]]
compound = "NC[C@@H]1O[C@H](O[C@@H]2[C@@H](CO)OC(O[C@@H]3[C@@H](O)[C@H](N)C[C@H](N)[C@H]3O[C@H]3O[C@H](CO)[C@@H](O)[C@H](O)[C@H]3N)[C@@H]2O)[C@H](N)[C@@H](O)[C@@H]1O (stereo partly drawn)"
value_reported = 0.98

[[record]]
compound = "COC(=O)C(N)CS (stereo not drawn)"
value_reported = 0.978

[[record]]
compound = "C[C@@H]1CCC2[C@](C)(CO)[C@@H](O)CC[C@]2(C)[C@@]12CC[C@@](CO)(CCO)O2 (stereo partly drawn)"
value_reported = 0.984

[[record]]
compound = "NC[C@H]1O[C@H](OC2[C@@H](N)C[C@@H](N)[C@H](O[C@H]3O[C@H](CO)[C@@H](O)[C@H](N)[C@H]3O)[C@H]2O)[C@H](O)[C@@H](O)[C@@H]1O (stereo partly drawn)"
value_reported = 0.984

[[record]]
compound = "COC1CC(O[C@H]2CC[C@]3(C=O)C4CC[C@]5(C)C(C6=CC(=O)OC6)CC[C@]5(O)C4CC[C@]3(O)C2)OC(C)C1O (stereo partly drawn)"
value_reported = 0.958

[[record]]
compound = "CN(C)CC[C@H](c1ccc(Cl)cc1)c1ccccn1"
value_reported = 0.992

[[record]]
compound = "C[N+]1(C)C[C@H](O)[C@H](C(=O)[O-])C1"
value_reported = 0.996

[[record]]
compound = "Cc1c(OCC(F)(F)F)ccnc1CS(=O)c1nc2ccccc2[nH]1 (stereo not drawn)"
value_reported = 0.979

